Assignment: determine reported IC50 at 4 h for the given compounds.
# testProtocol: Cytotoxicity / cell viability by SRB colorimetric assay
# Format: cell-based
# studyConditions: mouse, RAW 264.7 cells, inhibition of cell viability of samples-treated RAW264.7 cells
# Experimental: Then, 100-μL aliquots of the exponentially growing RAW 264.7 cells were seeded in 96-well culture plates at 1 × 10^4 cells/well at 37 °C for overnight in DMEM medium with 0.1% FBS. […] The nitrite concentration (NO production) in the culture supernatant was measured using Nitric Oxide assay kit mainly containing Griess reagent. The absorbance was measured at 540 nm using a microplate reader (M5). […] The cell viability was evaluated by SRB colorimetric assay.

The compound identified as C=C1C(=O)O[C@@H]2C[C@]3(C)C(=C[C@H]12)[C@@H](C)CC[C@H]3OC(C)=O registered its IC50 at 4 h at > 50 µM

The compound identified as C=C1C(=O)O[C@@H]2C[C@]3(C)C(=C[C@H]12)[C@@H](C)CC[C@H]3O [Compound 1, 1β-Hydroxy alantolactone] registered its IC50 at 4 h at > 50 µM

The compound identified as C=C1C(=O)O[C@@H]2C[C@]3(C)C(=C[C@H]12)[C@@H](C)CC[C@H]3OC(=O)CCC(=O)O registered its IC50 at 4 h at > 50 µM

The compound identified as C=C1C(=O)O[C@@H]2C[C@@]3(C)C(=O)CC[C@H](C)C3=C[C@H]12 registered its IC50 at 4 h at 34.5 µM
